test system: S. aureus RN4220; assay: growth inhibition call (relative growth <= 0.2); conditions: 50 µM
The whole screen tested about 39,000 compounds, of which about 500 (1.3%) were called active. The sample as a whole holds a higher share of actives than the screen did.
Outcome codes: yes (1) (active), no (0) (inactive)

# Molecule, Test target, Class assignment
data = [
    ("Oc1c(Cl)cc(Cl)cc1Sc1cc(Cl)cc(Cl)c1O", "S. aureus RN4220", "no (0)"),
    ("COc1ccc2c3c([nH]c2c1)[C@@H](CO)N(C[C@]13CCN(CC1)CC1CCCCC1)C(=O)Nc1cccc(c1)F", "S. aureus RN4220", "yes (1)"),
    ("O=C(Nc1cc(Cl)cc(Cl)c1O)c1c(O)c(Cl)cc(Cl)c1Cl", "S. aureus RN4220", "yes (1)"),
    ("Cc1cc(O)c(C(=O)NC(C(=O)NC2C(=O)N3C(C(=O)O)=C(CSc4nnnn4C)CSC23)c2ccc(O)cc2)cn1 (stereo not drawn)", "S. aureus RN4220", "yes (1)"),
    ("Cc1cc(=O)c(C(=O)N[C@@H](C(=O)N[C@@H]2C(=O)N3C(C(=O)O)=C(CSc4nnnn4C)CS[C@H]23)c2ccc(O)cc2)c[nH]1", "S. aureus RN4220", "yes (1)"),
    ("COc1ccc(NC(=O)N(C)C[C@@H]2Oc3ccc(NC(=O)C4CC4)cc3CC(=O)N([C@@H](C)CO)C[C@@H]2C)cc1", "S. aureus RN4220", "no (0)"),
    ("Oc1c(Cl)cc(Cl)c(Cl)c1Cc1c(O)c(Cl)cc(Cl)c1Cl", "S. aureus RN4220", "no (0)"),
    ("COc1ccc2c3c([nH]c2c1)[C@H](CO)N(C[C@]13CN(CC2CCCCC2)C1)C(=O)Nc1cccc(c1)F", "S. aureus RN4220", "yes (1)"),
]
